src = PubChem BioAssay

test: reversal of MRP1-mediated doxorubicin resistance, pilot screen, H69AR cells, doxorubicin co-treatment (AID 601); conditions: H69AR cells + 2 uM doxorubicin, CellTiter-Glo, 72 h; at 10 µM; hits give high values
parameter_measured: differential viability (reversal) (%)

INSERT INTO results (molecule, parameter_measured, number) VALUES
  ('O=C(O)c1ccccc1C(=O)Nc1ccccc1', 'differential viability (reversal)', 12.1),
  ('O=C(C1CCCN(S(=O)(=O)c2cccc3nonc23)C1)N1CCC(Cc2ccccc2)CC1 (centres undefined)', 'differential viability (reversal)', 16),
  ('O=C(Nc1ccc2c(c1)nc1n2CCN(Cc2ccccc2)C1)c1cccs1', 'differential viability (reversal)', -12.4),
  ('CCc1nc(SCC(=O)NCc2ccco2)c2c3c(sc2n1)CCCC3', 'differential viability (reversal)', -9.31),
  ('COc1ccc(S(=O)(=O)NC(C)C(=O)Nc2cccc(C(C)=O)c2)cc1 (centres undefined)', 'differential viability (reversal)', 9.17),
  ('Cc1ccc(C2CC(c3cccc(Br)c3)Nc3nnnn32)cc1 (centres undefined)', 'differential viability (reversal)', 6.65),
  ('Cc1ccc2nc(/C(C#N)=N/O)[nH]c2c1', 'differential viability (reversal)', -2.1),
  ('O=C(Cn1[nH]c(=O)c2ccccc2c1=O)OCC(=O)N1CCCc2ccccc21', 'differential viability (reversal)', 13.7),
  ('CC(Cc1ccc(O)c(O)c1)C(C)Cc1ccc(O)c(O)c1 (centres undefined)', 'differential viability (reversal)', -1.66),
  ('CN(C)S(=O)(=O)c1ccc(S(=O)(=O)N(Cc2ccco2)Cc2ccccc2Cl)cc1', 'differential viability (reversal)', 7.62),
  ('COc1ccccc1-n1cnnc1SCC(=O)c1ccc[nH]1', 'differential viability (reversal)', 9.87),
  ('COc1ccc(N(CC(=O)Nc2ccccc2SC)S(C)(=O)=O)cc1OC', 'differential viability (reversal)', 7.5),
  ('c1ccc(-c2cc(N3CCCCC3)ncn2)cc1', 'differential viability (reversal)', 9.16),
  ('COC(=O)c1cccc(NC(=O)CSc2nnc(COc3ccccc3)n2C)c1', 'differential viability (reversal)', 13.7),
  ('CS(=O)(=O)N(CC(=O)N1CCc2ccccc2C1)c1ccc2c(c1)OCO2', 'differential viability (reversal)', 14.2),
  ('CC(C)(Oc1ccc(Cl)cc1)C(=O)NCc1ccncc1', 'differential viability (reversal)', 5.47),
  ('COc1ccc(C)cc1S(=O)(=O)N(C)CC(=O)Nc1ccc2c(c1)OCO2', 'differential viability (reversal)', 1.07),
  ('O=C(CSc1nc2ccccc2o1)NC(=O)NCc1ccco1', 'differential viability (reversal)', 3.28),
  ('CCOC(=O)C(C#N)C(c1cccnc1)c1c(C)[nH][nH]c1=O (centres undefined)', 'differential viability (reversal)', 9.4),
  ('CCOc1ccc(-c2nc(S(=O)(=O)c3ccccc3)c(NCc3cccnc3)o2)cc1', 'differential viability (reversal)', 6.18),
  ('CCCCC[C@H](O)/C=C/[C@@H]1[C@@H](CCCCCCC(=O)O)[C@@H](O)C[C@H]1O', 'differential viability (reversal)', 9.71),
  ('O=C(CCn1c(=O)oc2ccccc21)N1CCCCCC1', 'differential viability (reversal)', 5.09),
  ('Cc1cnc(NC(=O)C2=C(O)c3ccccc3S(=O)(=O)N2C)s1', 'differential viability (reversal)', 0.62),
  ('O=C(CCCn1c(=S)[nH]c2cc3c(cc2c1=O)OCO3)N1CCN(c2ccccc2F)CC1', 'differential viability (reversal)', -9.88),
  ('CCOC(=O)c1c(-c2ccc(C)o2)csc1NC(=O)CN1CCN(CC)CC1', 'differential viability (reversal)', -6.44),
  ('CCOC(=O)C1(c2ccccc2)NC(c2ccc(N(C)C)cc2)C2C(=O)N(C)C(=O)C21 (centres undefined)', 'differential viability (reversal)', 29.2),
  ('O=S(=O)(NCCc1ccncc1)c1cc(Br)ccc1F', 'differential viability (reversal)', 13.4),
  ('O=C(NC(NC1CCS(=O)(=O)C1)C(=O)c1cccs1)c1ccccc1 (centres undefined)', 'differential viability (reversal)', 7.72),
  ('CC(C)CCNC(=O)C(C)N(Cc1ccc(F)cc1)C(=O)c1ccc(CN2CCCCC2)o1 (centres undefined)', 'differential viability (reversal)', -0.095);
